test system: MDA-N; assay: NCI tumour cell line growth inhibition, 48 h
attribute_measured: TGI

In the examples that follow, each entry is paired with its recorded TGI.
• CCOC(=O)c1c[nH]c(C(=O)OCC)c1-c1cccn1-c1ccccc1 = 99.2 µM
• Cc1ccc(/C=C2\Sc3scc(-c4ccccc4)[n+]3C2=O)cc1 = > 67.1 µM
• O=C1CCN2c3ccccc3[C@H]3Cc4cccc(c4[C@@H]2C3)CCO1 = 80.3 µM

Dear colleague, could you please provide TGI for the molecules listed below?
1. CC(C)Oc1c(C2(c3ccccc3)SCCCS2)c(=O)c1=O
2. Brc1ccc(C2C3CSc4ccccc4C3=NN2c2ccccc2)cc1 (stereo not drawn)
3. CS(=O)(=O)N1CC(CCl)c2ccc(NO)cc21 (stereo not drawn)
4. CC1=NN(c2nc(N)nc(NS(=O)(=O)c3cc(C)c(Cl)cc3S)n2)C(C)(C)C1
5. CC(=O)CCCCn1c(=O)c2c(nc(Br)n2C)n(C)c1=O
6. CCOC(=O)C(NC(=O)OCc1ccccc1)C(=O)O (stereo not drawn)
7. O=C(CNc1ccccn1)Nn1cnc2ccc(S(=O)(=O)Nc3ccccn3)cc2c1=O
8. C[N+](C)(CCCCCC[N+](C)(C)CCCN1C(=O)c2cccc3cccc(c23)C1=O)CCCN1C(=O)c2cccc3cccc(c23)C1=O

-- reply
["> 100 µM", "> 100 µM", "32.4 µM", "> 10 µM", "> 100 µM", "> 100 µM", "> 100 µM", "> 100 µM"]

# per-item lookup of TGI; items listed below
1. C[C@]12C=CC(=O)C=C1CC[C@@H]1[C@@H]2CC[C@@]2(C)[C@H]1CC[C@]2(O)C(N)=O
2. CC(=O)OCC1OC(n2c(=S)n(-c3ccc([N+](=O)[O-])cc3)c(=O)c3ccccc32)C(OC(C)=O)C(OC(C)=O)C1OC(C)=O (stereo not drawn)

-- reply
> 100 µM
82.3 µM

* * *

tested on: MDA-MB-231 breast; assay: NCI tumour cell line growth inhibition, 48 h
Would you kindly list TGI for each of these compounds?
Give bare numbers, in µM.

- O[C@]12C=C(c3nccc4c3[nH]c3ccccc34)[C@@H]3CCN(CCCC/C=C\CC1)C[C@@]31CC3/C=C\CCCCN3[C@H]12 (some centres not stated): 1.84

Record TGI per entry; entries follow.
1. CCCCOCCOCCOC1=CC(=O)c2c(O)ccc(O)c2C1=O
2. COC(=O)C(CC(C)C)NC(=O)C(NC(=O)c1ccc(-c2ccc(Cl)cc2Cl)o1)C(C)C (configuration not stated)

-- reply
1. 3.86
2. 35.3

* * *

For each record, write down the corresponding TGI.
test system: KM20L2 colon; assay: NCI tumour cell line growth inhibition, 48 h

Below, 3 compounds whose answers are already recorded.
• CC(C)(C)c1cc(CCC(=O)Nc2ccc(Cl)cc2)[nH]c(=S)n1 = > 100 µM
• S=c1sc2c(s1)SC(c1ccccc1)CS2 (stereo unspecified) = > 100 µM
• COC(=O)C1CC2C=CC=CC(=O)C2(C)C1 (stereo unspecified) = > 100 µM

Give one value of TGI per listed compound.
1. O=NN1C(c2ccccc2)CNC(=O)CC1c1ccccc1 (stereo unspecified)
2. O=C(c1ccc(O)cc1O)C1C(c2ccc(O)cc2)OC(c2ccc(O)cc2)C1C(=O)c1ccc(O)cc1O (stereo unspecified)
3. CC(C)N(C(=O)C12C3C4C1C1C2C3C41C#N)C(C)C (stereo unspecified)
4. OCC1O[C@H](O[C@@H]2CCCN3CC(O)C(O)[C@@H]23)C(O)C(O)C1O (stereo partly specified)
5. Cc1nc(N)nc(N)c1CCCCc1ccc(N)cc1

-- reply
1: 63.5 µM; 2: > 100 µM; 3: > 100 µM; 4: > 100 µM; 5: 18.2 µM

Quick one: give me TGI for each item below, same order please.
1. CN(C)CCNc1ccc2ncn3c4ccccc4c(=O)c1c23
2. COC(=O)C(=O)C(C(=O)OC)C(=O)C(=O)Nc1c(C)cccc1C (stereo unspecified)
3. O=[N+]([O-])c1ccc(C2=Nc3ccccc3S(=O)C(c3ccccc3)C2)cc1 (stereo unspecified)

-- reply
1: 13.6 µM; 2: > 100 µM; 3: 57.8 µM

* * *

tested on: LOX IMVI melanoma; assay: NCI tumour cell line growth inhibition, 48 h
Would you kindly list GI50 for each of these molecules?

- CCOC(=O)[C@@H](C)C[C@H](Cc1ccccc1)NC(=O)c1csc([C@@H](C[C@H](C(C)C)N(C)C(=O)[C@@H](NC(=O)[C@H]2CCCCN2C)C(C)(C)CC)OC(C)=O)n1: < 0.00167 µM
- CCOCC1(COCC)CCC(c2[nH]ncc2CN(C)CCNC)CC1: > 100 µM
- COc1cc(/C=C2\C(=O)N(Cc3ccc(Cl)cc3)c3ccccc32)cc(OC)c1OC: 1.59 µM
- COc1ccc(-c2cc(-c3ccc(Nc4nc(Nc5ccccc5)nc(Nc5ccc(Cl)cc5)n4)cc3)nc(N)n2)cc1: 11.1 µM

Items follow; give GI50 for each.
1. NC(N)=N/N=C/c1c(-c2ccsc2)nc2n1CCS2
2. CCOC(=O)CSc1cc(Cl)c(C)cc1S(=O)(=O)/N=C(/N=C/c1ccc([N+](=O)[O-])s1)NNC
3. CO[C@H]1C[C@@H]2CC[C@@H](C)[C@@](O)(O2)C(=O)C(=O)N2CCCC[C@H]2C(=O)O[C@H]([C@H](C)C[C@@H]2CC[C@@H](OC(=O)C(C)(CO)CO)[C@H](OC)C2)CC(=O)[C@H](C)/C=C(\C)[C@@H](O)[C@@H](OC)C(=O)[C@H](C)C[C@H](C)\C=C/C=C/C=C/1C
4. Cc1cc(=O)oc2ccc(OC/C=C3\CCC(=O)O3)cc12

-- reply
16.3 µM
17.8 µM
0.00435 µM
4.94 µM

Provide each entry's GI50 from the list below.
1. COC1(CC[C@@H](C)COC2OC(CO)C(O)C(O)C2O)O[C@H]2C[C@H]3[C@@H]4CC=C5C[C@@H](OC6OC(CO)C(OC7OC(C)C(O)C(O)C7O)C(O)C6OC6OC(C)C(O)C(O)C6O)CC[C@]5(C)[C@H]4CC[C@]3(C)[C@H]2[C@@H]1C (stereo partly specified)
2. CN=C(N)c1ccc(N=C(N)c2ccc(-c3ccc(C(N)=Nc4ccc(C(N)=NC)cc4)cc3)cc2)cc1
3. NC1NC=NC2C1N=CN2C1OC(CO)C2[O][Sn][O]C21 (stereo unspecified)

-- reply
1. 0.645 µM
2. 83 µM
3. > 100 µM

* * *

system: NCI-H460 lung
attribute_measured: GI50

Some solved cases for reference:
• COc1cc(-c2cc(/C=C/C(=O)c3ccc(F)c(F)c3)[nH]n2)cc(OC)c1OC = 2960 nM
• CCOC(=O)[C@@H](C)C[C@H](Cc1ccccc1)NC(=O)c1csc([C@@H](C[C@H](C(C)C)N(C)C(=O)[C@@H](NC(=O)[C@H]2CCCCN2C)C(C)(C)CC)OC(C)=O)n1 = < 1.67 nM

Can you give me GI50 for all of these, one by one?
1. COc1ccc(C(O)c2cc3c(N)c(C(=O)Nc4ccc(Cl)cc4)sc3nc2C)cc1 (centres undefined)
2. NC(N)=N/N=C/c1c(-c2ccsc2)nc2n1CCS2

-- reply
1. 2300 nM
2. 27900 nM

* * *

test system: MDA-MB-435; assay: NCI tumour cell line growth inhibition, 48 h
Please enter fulfilled where TGI is greater than or equal to 2 µM, and not fulfilled where it is lower.

Worked set:
- CC(CSC(=N)N)C(N)=O (stereo not given): fulfilled
- CC1CC2C3CCC4=CC(=O)C=CC4(C)C3(F)C(O)CC2(C)C1(O)C(=O)COP(=O)(O)O (stereo not given): fulfilled
- NS(=O)(=O)c1ccc(NC(=O)N/N=C/c2ccccc2O)cc1: fulfilled

-- ask I'd appreciate it if you could say whether CCCCOCCOCCOC1=CC(=O)c2c(O)ccc(O)c2C1=O has TGI at least equal to 2 µM.
-- reply not fulfilled

-- ask Please check the record COc1nc(N=P(c2ccccc2)(c2ccccc2)c2ccccc2)cc(=O)n1C and state if its TGI is at or above 2 µM.
-- reply fulfilled

-- ask Could you verify whether the entry O[C@]12C=C(c3nccc4c3[nH]c3ccccc34)[C@@H]3CCN(CCCC/C=C\CC1)C[C@@]31CC3/C=C\CCCCN3[C@H]12 (stereo not given in full) shows TGI of no less than 2 µM?
-- reply not fulfilled

* * *

tested on: SK-MEL-5 melanoma; test: NCI tumour cell line growth inhibition, 48 h; in the data active = GI50 below about 0.43 µM; inactive = the rest
// one of y (active), n (inactive), no free text

Illustrative cases are given below, each with its answer.
- COc1cc(/C=C/C(=O)c2cccc(-n3cc(-c4cc(OC)c(OC)c(OC)c4)[nH]c3=O)c2)cc(OC)c1OC: n
- CSC1=NC(=Nc2c(C)cccc2C)C2(CCC(C(C)(C)C)CC2)N1c1ccc(Cl)cc1 (centres undefined): n
- COC(=O)NC1C(C)OC(OC2C/C=C(/C)C3C=CC4C(OC5CC(OC6CCC(OC7CC(O)C(OC8CCC(O)C(C)O8)C(C)O7)C(C)O6)C(OC(C)=O)C(C)O5)C(C)CC(C)C4C3(C)/C(O)=C3/C(=O)OC4(CC(C=O)=CC(O)C4/C=C\2C)C3=O)CC1(C)[N+](=O)[O-] (centres undefined): y

# next molecule below
-- ask Which outcome was assigned to CCOC(=O)CSc1cc(Cl)c(C)cc1S(=O)(=O)/N=C(/N=C/c1ccc([N+](=O)[O-])s1)NNC in this test?
-- reply n

# credit: PubChem BioAssay (NCI)
